Listed binders paired with reported pIC50
Molecular target: HLA-DR DRB1*1501 (human)
Assay: competition with 125I-labelled peptide, purified HLA
Conceptually, pIC50 converts a concentration in mol/L into minus its log10.

binder	pIC50
TKKMVTQRTIGKKKQ (modifications not checked) [Flu.PB1.199]	5.01

Looking for the measured pIC50 of YIQMCTELKLSDYEG (modifications not checked) [Flu.NP.43] , can you help?
6.23

Which measured pIC50 value corresponds to SLMLQIGNMISIWVSHS (modifications not checked) [Flu.NA.21] ?
8.10
